# study.system: T1, PUF4 RNA-binding domain (Saccharomyces cerevisiae, UniProt P25339 537-888)
# T1 sequence: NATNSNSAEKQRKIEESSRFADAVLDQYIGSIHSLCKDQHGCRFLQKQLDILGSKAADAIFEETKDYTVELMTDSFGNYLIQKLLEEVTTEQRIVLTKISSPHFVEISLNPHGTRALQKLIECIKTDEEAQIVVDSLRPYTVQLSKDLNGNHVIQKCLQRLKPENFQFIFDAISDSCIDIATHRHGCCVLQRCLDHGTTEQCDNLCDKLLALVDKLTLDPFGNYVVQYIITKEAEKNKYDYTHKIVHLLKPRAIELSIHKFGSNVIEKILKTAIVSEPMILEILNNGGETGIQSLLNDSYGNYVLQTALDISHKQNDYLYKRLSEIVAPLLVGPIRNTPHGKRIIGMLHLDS
# experimental.details: Mg; RNA-MaP; 20 mM Na-HEPES pH 7.4, 30 mM KOAc, 0.75 mM MgCl2, 0.1% Tween-20, 5% glycerol, 0.1 mg/mL BSA, 2 mM DTT; 25 C; 0.0125-409.6 nM protein
# study.conditions: tags: N-His6-TEV cleaved; C-SNAP kept, Cy3B-labelled; label: tethered on chip by stalled RNA polymerase
Classify: met when Kd is strictly less than 40 nM; not met when Kd is not.

binder: Ib_S4_P4E.1_K4.1_C4.1_H4.1_[G2T]_[A4C]_A4.1_F4.1_T4.1 (ssRNA) RNA: UUUGACAACUGAUCGUUCUUUCUUUUCUAUUAUUCUUUCUCGAUCAGUUGUCUUU
category: not met

binder: UCUCUUUGUAAUCUUCUCUU (ssRNA) [Ic_S1_P3E.1_K3.1_C3.1_H3.1_A3.1_[T5A]_[A6T]_F3.1_[T7C]_[A8T]_T3.1]
category: not met

binder: UCUCUUUUUAUAUAUACCUCUCUU (ssRNA) [Id_ii_S1_P3E.3_K3.2_C3.2_[C-2T]_H3.2_A3.1_F3.1_T3.2_[T9C]_[A10C]]
category: not met

A record lists Id_ii_S4_P3E.3_K3.2_C3.2_[C-2G]_H3.2_A3.1_F3.1_T3.2 (ssRNA) RNA: UUUGACAACUGAUCGUUCUUUCUGUUAUAUAUAUAUUCUUUCUCGAUCAGUUGUCUUU . Is its Kd below 40 nM?
not met

Record UCUCUUUGUAUUCUUCUCUCUU (ssRNA) [Ib_S1_P5E.1_K5.1_C5.1_H5.1_A5.1_[A7C]_F5.1_[A10C]_T5.1] : is its Kd strictly below 40 nM?
met

Kd under 40 nM? Item: Ib_S2_P5E.1_K5.1_C5.1_H5.1_A5.1_[T6A]_F5.1_[T9A]_T5.1 (ssRNA) RNA: UUUGAUUAAUAUGAUAUCGUUCUUUCUUGUAUAAUAAUUCUUUCUCGAUAUCAUAUUAAUCUUU
met
